targetOrTestSystem: Bifunctional protein GlmU (Mycobacterium tuberculosis (strain ATCC 25618 / H37Rv))
protocolSummary: inhibition of mycobacterial GlmU enzyme – biochemical, glucosamine-1-phosphate acetyltransferase (AID 1376);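 further: 0% = complete reaction with vehicle and 100% = reaction without substrate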
appliedConditions: M. tuberculosis GlmU acetyltransferase enzyme assay;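 tested at 30 µM in the primary screen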
The campaign covered roughly 220,000 compounds. About 530 (0.24%) were called active. No stated cut-off is given here; in the data, active means inhibition above about 13%; inconclusive means no clear call, values can overlap the other calls; inactive means below that. Only a selection was taken, and actives are over-represented in it overall. Entries with a potency or affinity are not part of this list.
Could you please pick one outcome from this set? true (active), false (inactive)

- compound: "CCCCC(=O)Nc1ccc(C(=O)Nc2ccc(S(=O)(=O)Nc3ccc(C)cc3)cc2)cc1"
  targetOrTestSystem: "Bifunctional protein GlmU (Mycobacterium tuberculosis (strain ATCC 25618 / H37Rv))"
  classLabel: "false"
- compound: "CCCCCC/C(C)=C1/SC(=S)NC1=O"
  targetOrTestSystem: "Bifunctional protein GlmU (Mycobacterium tuberculosis (strain ATCC 25618 / H37Rv))"
  classLabel: "false"
- compound: "CC(=O)CC(c1ccc([N+](=O)[O-])cc1)c1c(O)c2ccccc2oc1=O (centres undefined)"
  targetOrTestSystem: "Bifunctional protein GlmU (Mycobacterium tuberculosis (strain ATCC 25618 / H37Rv))"
  classLabel: "false"
- compound: "CC1(c2nnc(Cc3ccccc3)o2)CC(c2ccc([N+](=O)[O-])cc2)=NO1 (centres undefined)"
  targetOrTestSystem: "Bifunctional protein GlmU (Mycobacterium tuberculosis (strain ATCC 25618 / H37Rv))"
  classLabel: "false"
- compound: "COc1ccc(Cc2c(O)nc(SCC(=O)c3ccc(OC)cc3)[nH]c2=O)cc1"
  targetOrTestSystem: "Bifunctional protein GlmU (Mycobacterium tuberculosis (strain ATCC 25618 / H37Rv))"
  classLabel: "false"
- compound: "COC(=O)c1ccc(S(=O)(=O)N2CCCCCC2)n1C"
  targetOrTestSystem: "Bifunctional protein GlmU (Mycobacterium tuberculosis (strain ATCC 25618 / H37Rv))"
  classLabel: "true"

q: Recorded test call requested for O=C1/C(=C\c2ccc(Br)o2)Cc2ccccc21
a: false

* * *

Listed below: inhibition values for each entry.
targetOrTestSystem: Bifunctional protein GlmU (Mycobacterium tuberculosis (strain ATCC 25618 / H37Rv))
protocolSummary: inhibition of mycobacterial GlmU enzyme – biochemical, glucosamine-1-phosphate acetyltransferase (AID 1376);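 further: 0% = complete reaction with vehicle and 100% = reaction without substrate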
appliedConditions: M. tuberculosis GlmU acetyltransferase enzyme assay; stronger effect = higher value;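 tested at 30 µM in the primary screen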
Screen size: about 220,000 compounds; about 530 (0.24%) were called active. Many of the other results were omitted from the sample, so actives are more common in it than they were. Entries with a potency or affinity are not part of this list.

# count of solved cases: 4
- lineNotation: "CSc1nc(Cl)cc(N2CCOCC2)n1"
  inhibition: "3.3% (inactive)"
- lineNotation: "O=C(O[C@@H]1OC2COC(=O)c3cc(O)c(O)c(O)c3-c3c(cc(O)c(O)c3O)C(=O)O[C@@H]([C@H]1O)[C@@H]2O)c1cc(O)c(O)c(O)c1"
  inhibition: "30.4% (inactive)"
- lineNotation: "O=[N+]([O-])c1cc(/C=N\\Nc2nc(-c3ccccc3)cs2)ccc1O"
  inhibition: "7.14% (inactive)"
- lineNotation: "Cc1n[nH]c(=O)nc1N/N=C/c1ccc(O)c([N+](=O)[O-])c1"
  inhibition: "5.79% (inactive)"

q: What inhibition appears in the records for this compound with Bifunctional protein GlmU (Mycobacterium tuberculosis (strain ATCC 25618 / H37Rv))? CCCCN(CCCC)CCNC(=O)CNC(=O)c1cccs1
a: 2.63% (inactive)

* * *

targetOrTestSystem: Bifunctional protein GlmU (Mycobacterium tuberculosis (strain ATCC 25618 / H37Rv)) (UniProt P9WMN3)
Sequence (P9WMN3 whole entry, looked up): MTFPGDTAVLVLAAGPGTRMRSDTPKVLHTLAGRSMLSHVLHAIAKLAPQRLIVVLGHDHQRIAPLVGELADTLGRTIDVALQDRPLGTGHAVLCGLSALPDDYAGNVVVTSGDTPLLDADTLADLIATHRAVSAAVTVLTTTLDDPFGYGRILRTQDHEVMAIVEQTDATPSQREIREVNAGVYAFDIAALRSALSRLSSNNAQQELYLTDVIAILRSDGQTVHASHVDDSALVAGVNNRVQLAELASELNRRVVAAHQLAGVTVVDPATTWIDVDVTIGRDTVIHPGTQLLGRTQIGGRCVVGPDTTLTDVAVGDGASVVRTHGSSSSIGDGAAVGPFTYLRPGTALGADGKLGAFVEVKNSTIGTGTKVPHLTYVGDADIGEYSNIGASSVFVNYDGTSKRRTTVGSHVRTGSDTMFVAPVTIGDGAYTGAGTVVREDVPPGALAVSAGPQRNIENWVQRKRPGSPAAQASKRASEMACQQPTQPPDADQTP
protocolSummary: inhibition of mycobacterial GlmU enzyme – biochemical, glucosamine-1-phosphate acetyltransferase (AID 1376);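 further: 0% = complete reaction with vehicle and 100% = reaction without substrate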
appliedConditions: M. tuberculosis GlmU acetyltransferase enzyme assay;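 tested at 30 µM in the primary screen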
The campaign covered roughly 220,000 compounds. About 530 (0.24%) were called active. No stated cut-off is given here; in the data, active means inhibition above about 13%; inconclusive means no clear call, values can overlap the other calls; inactive means below that. The sample holds actives, similar compounds and a random draw of the others, so the mix is not that of the screen. Results with a measured potency or affinity are listed apart.
Could you please pick one outcome from this set? active, inactive

Answered examples (5):
- lineNotation: "Cc1cccc(N=C2NC(=O)/C(=C/C=C/c3ccco3)S2)c1C"
  classLabel: "inactive"
- lineNotation: "Cc1cccc(N=C2NC(=O)/C(=C/C=C/c3ccco3)S2)c1"
  classLabel: "active"
- lineNotation: "O=C(Nc1ccc(F)cc1F)N1CCN(c2ncccn2)CC1"
  classLabel: "inactive"
- lineNotation: "O=C1NC(=Nc2ccccc2)S/C1=C\\C=C\\c1ccco1"
  classLabel: "active"
- lineNotation: "O=C(c1coc(=O)c(Br)c1)N1CCCc2ccccc21"
  classLabel: "inactive"

Alright, here's another molecule for you.
q: Recorded test call requested for COc1ccc(N=C2NC(=O)/C(=C\C=C\c3ccco3)S2)cc1
a: inactive

* * *

targetOrTestSystem: Bifunctional protein GlmU (Mycobacterium tuberculosis (strain ATCC 25618 / H37Rv)) (UniProt P9WMN3)
protocolSummary: inhibition of mycobacterial GlmU enzyme – biochemical, glucosamine-1-phosphate acetyltransferase (AID 1376);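 further: 0% = complete reaction with vehicle and 100% = reaction without substrate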
appliedConditions: M. tuberculosis GlmU acetyltransferase enzyme assay; stronger effect = higher value;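 tested at 30 µM in the primary screen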
Out of some 220,000 compounds screened, about 530 (0.24%) were called active. The full list was thinned out, with actives kept by preference. Potency and affinity values are given separately.
Listed below: inhibition values for each entry.
Expressed in %, but write only the number.

# count of solved cases: 2
- compound: "CC1(C)OC(=O)C(=Cc2ccc(-c3ccc(Cl)c(C(=O)O)c3)o2)C(=O)O1"
  measurementUnit: "%"
  inhibition: 6.43
- compound: "Cc1nnc(SCC(=O)Nc2ccc(-c3nc4ccccc4s3)cc2)s1"
  measurementUnit: "%"
  inhibition: 6.16

q: Can you look up the measured inhibition of CCOC(=O)c1cnc(-n2nc(C)cc2C)nc1Oc1ccc(C(=O)OC)cc1 for me?
a: -2.28

q: // same read-out, input: O=C1NN(c2ccccc2)C(=O)/C1=C/c1ccc(Sc2ccc(Cl)cc2)o1
a: 4.82

q: // same read-out, input: NC(=O)CSc1nnc(Cn2cnc3ccccc32)o1
a: -3.79

q: // same read-out, input: Cc1ccc(N2C(=O)c3ccccc3C2C(=O)c2ccc(O)cc2O)cc1 (stereo unspecified)
a: 13.2

* * *

Listed below: inhibition values for each entry.
targetOrTestSystem: Bifunctional protein GlmU (Mycobacterium tuberculosis (strain ATCC 25618 / H37Rv)) (UniProt P9WMN3)
protocolSummary: inhibition of mycobacterial GlmU enzyme – biochemical, glucosamine-1-phosphate acetyltransferase (AID 1376);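 further: 0% = complete reaction with vehicle and 100% = reaction without substrate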
appliedConditions: M. tuberculosis GlmU acetyltransferase enzyme assay; stronger effect = higher value;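 tested at 30 µM in the primary screen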
Screen size: about 220,000 compounds; about 530 (0.24%) were called active. This is one part of a sample in which actives are shown more often than they occur. Measured potencies and affinities stand elsewhere.
Expressed in %, but write only the number.

# count of solved cases: 5
- lineNotation: "COCCCNC(=O)C1CCN(C(=O)c2cc3sccc3n2Cc2ccc(F)cc2)CC1"
  measuredParameter: "inhibition"
  measurementUnit: "%"
  measured: 1.5
- lineNotation: "COc1ccc(CNC(=O)COC(=O)c2c[nH]c(=O)[nH]c2=O)cc1OC"
  measuredParameter: "inhibition"
  measurementUnit: "%"
  measured: -0.09
- lineNotation: "C#CC[N+](C)(C)CCCCCCCCCC"
  measuredParameter: "inhibition"
  measurementUnit: "%"
  measured: -5.84
- lineNotation: "O=C(COC(=O)c1c[nH]c(=O)[nH]c1=O)Nc1ccccc1"
  measuredParameter: "inhibition"
  measurementUnit: "%"
  measured: -4.87
- lineNotation: "O=C(O)c1cccc(Cn2c(Cl)c(/C=N/NC(=O)c3ccccc3O)sc2=O)c1"
  measuredParameter: "inhibition"
  measurementUnit: "%"
  measured: 5.34

Kindly consider the entry below.
q: Can you look up the measured inhibition of Oc1cccc(C(=S)N2CCCCC2)c1 for me?
a: -2.56

* * *

targetOrTestSystem: Bifunctional protein GlmU (Mycobacterium tuberculosis (strain ATCC 25618 / H37Rv))
protocolSummary: inhibition of mycobacterial GlmU enzyme – biochemical, glucosamine-1-phosphate acetyltransferase (AID 1376);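 further: 0% = complete reaction with vehicle and 100% = reaction without substrate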
appliedConditions: M. tuberculosis GlmU acetyltransferase enzyme assay; stronger effect = higher value;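 tested at 30 µM in the primary screen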
Out of some 220,000 compounds screened, about 530 (0.24%) were called active. The entries come from a sample that favours actives as a whole. Entries with a potency or affinity are not part of this list.
measuredParameter: inhibition (%)
Expressed in %, but write only the number.

q: What inhibition appears in the records for this compound with Bifunctional protein GlmU (Mycobacterium tuberculosis (strain ATCC 25618 / H37Rv))? C/C(=N\O)c1cc(Cl)cc(Cl)c1O
a: -5.49

q: // same read-out, input: NC(=O)Nc1cccc2ccccc12
a: 14.6

q: // same read-out, input: Cc1cc(N=NC(=O)c2ccccc2)ccc1O
a: 1.4

q: // same read-out, input: CNC(=O)COC(=O)CCC(=O)c1cccs1
a: 4.98

q: // same read-out, input: COc1ccc(C)cc1-n1nnnc1SCC(=O)Nc1cc(C)on1
a: 4.65

q: // same read-out, input: O=C(N/N=C/C1=Cc2ccccc2OC1)c1ccncc1
a: -1.23

q: // same read-out, input: Oc1c(Cl)cc(Cl)cc1Sc1cc(Cl)cc(Cl)c1O
a: 13.1

q: // same read-out, input: CCOP(=O)(C1=C(O)C(=O)C(C(C)(C)C)=CC1=O)c1ccccc1 (stereo not drawn)
a: 19.3

q: // same read-out, input: CC1Oc2ccccc2C=C1/C=N/Nc1ccc(C(=O)O)cc1 (stereo not drawn)
a: 4.4

q: // same read-out, input: CCOc1ccc(N(CC(=O)NCC2CCCO2)C(=O)CCC(=O)Nc2nccs2)cc1 (stereo not drawn)
a: -0.08

q: // same read-out, input: C/C(=N\NC(=O)c1cccc(Cl)c1)c1cccc(NC(=O)c2ccco2)c1
a: 4.79

q: // same read-out, input: Cc1ccc(NC(=O)CS(=O)CC(=O)NC2CCN(Cc3ccccc3)CC2)c(C)c1 (stereo not drawn)
a: 5.17

q: // same read-out, input: O=C(NCCc1ccccn1)c1cccc(S(=O)(=O)N2CCc3ccccc32)c1
a: 2.85

q: // same read-out, input: COc1cccc(NC2=NC3(CCCCC3)N=C(N)N2)c1
a: 0.3

q: // same read-out, input: COC(=O)Cc1ccc(NC(=S)NCCSc2ccc(Cl)cc2)cc1
a: 3.25
